ASSAY CONDITIONS: 298.15 K; 100 kPa; Liquid; Concentric cylinders viscometry
Each record here notes measured viscosity.
# number only, unit mPa·s dropped from output

CN1CCC[C@H]1c1cccnc1 [(-)-3-(N-methylpyrrolidino)pyridine] | 4.048
CCCCO [butan-1-ol] | 2.564
OCCCO [propan-1,3-diol] | 41.55
CCC(C)O (stereo not given) [butan-2-ol] | 3.093

Query compound follows.
Data request: Returns the measured viscosity for the input compound. Input: CC(O)CO (stereo not given) [1,2-propanediol]
Data returned: 44.14

----------
ASSAY CONDITIONS: 313.15 K; 100 kPa; Liquid; Concentric cylinders viscometry
RESULT TYPE: viscosity (mPa·s)
Respond with the bare value in mPa·s.

Worked examples, 3 compounds total:
CCCCO [butan-1-ol] | 1.777
CC(O)CO (stereo not given) [1,2-propanediol] | 19.78
CN1CCC[C@H]1c1cccnc1 [(-)-3-(N-methylpyrrolidino)pyridine] | 2.758

Data request: viscosity lookup needed for CCC(C)O (stereo not given) [butan-2-ol] , thanks.
Data returned: 1.816

Data request: Now consider OCCCO [propan-1,3-diol] .
Data returned: 21.85

----------
TEST DESCRIPTION: refractive index (Na D-line) (dimensionless); xn = mol fraction of the nth substance listed
ASSAY CONDITIONS: 313.15 K; 100 kPa; Liquid; Standard Abbe refractometry; x1 = 0.1
RESULT TYPE: refractive index
# answer = number (no unit)

Example cases with answers are listed next.
CN1CCC[C@H]1c1cccnc1 [(-)-3-(N-methylpyrrolidino)pyridine] + CCCCO | 1.4127
CN1CCC[C@H]1c1cccnc1 [(-)-3-(N-methylpyrrolidino)pyridine] + CC(O)CO | 1.44441
CN1CCC[C@H]1c1cccnc1 [(-)-3-(N-methylpyrrolidino)pyridine] + CCC(C)O | 1.40979

Here is another compound to look at.
Data request: So what does the record say about refractive index for CN1CCC[C@H]1c1cccnc1 [(-)-3-(N-methylpyrrolidino)pyridine] + OCCCO ?
Data returned: 1.45171

----------
TEST DESCRIPTION: refractive index (Na D-line) (dimensionless); xn = mol fraction of the nth substance listed
ASSAY CONDITIONS: 318.15 K; 100 kPa; Liquid; Standard Abbe refractometry; x1 = 0.1
RESULT TYPE: refractive index
The answer should be written as a number, with no unit following it.

Recorded results for 3 compounds are shown here.
CN1CCC[C@H]1c1cccnc1 [(-)-3-(N-methylpyrrolidino)pyridine] + OCCCO | 1.45006
CN1CCC[C@H]1c1cccnc1 [(-)-3-(N-methylpyrrolidino)pyridine] + CCCCO | 1.41058
CN1CCC[C@H]1c1cccnc1 [(-)-3-(N-methylpyrrolidino)pyridine] + CCC(C)O | 1.40753

From here, focus on the item given below.
Data request: refractive index for CN1CCC[C@H]1c1cccnc1 [(-)-3-(N-methylpyrrolidino)pyridine] + CC(O)CO ?
Data returned: 1.44265

----------
TEST DESCRIPTION: xn = mol fraction of the nth substance listed
ASSAY CONDITIONS: 298.15 K; 100 kPa; Liquid; Concentric cylinders viscometry; x1 = 0.9
RESULT TYPE: viscosity (mPa·s)
Answer format: numeric, mPa·s implied, no suffix.

CN1CCC[C@H]1c1cccnc1 [(-)-3-(N-methylpyrrolidino)pyridine] + CC(O)CO | 5.707

Data request: Record request: viscosity value, item CN1CCC[C@H]1c1cccnc1 [(-)-3-(N-methylpyrrolidino)pyridine] + OCCCO
Data returned: 5.832

Data request: Would you kindly repeat that for CN1CCC[C@H]1c1cccnc1 [(-)-3-(N-methylpyrrolidino)pyridine] + CCC(C)O ?
Data returned: 4.179

Data request: Again, but for CN1CCC[C@H]1c1cccnc1 [(-)-3-(N-methylpyrrolidino)pyridine] + CCCCO
Data returned: 3.942

----------
TEST DESCRIPTION: xn = mol fraction of the nth substance listed
ASSAY CONDITIONS: 323.15 K; 100 kPa; Liquid; Vibrating tube method; x1 = 0.3
RESULT TYPE: mass density (kg/m3)
Entry rule: numbers only, all in kg/m3.

CN1CCC[C@H]1c1cccnc1 [(-)-3-(N-methylpyrrolidino)pyridine] + CC(O)CO | 1005.48
CN1CCC[C@H]1c1cccnc1 [(-)-3-(N-methylpyrrolidino)pyridine] + CCCCO | 876.851
CN1CCC[C@H]1c1cccnc1 [(-)-3-(N-methylpyrrolidino)pyridine] + OCCCO | 1018.63

Field: next molecule
Data request: Query (molecule): CN1CCC[C@H]1c1cccnc1 [(-)-3-(N-methylpyrrolidino)pyridine] + CCC(C)O ; field requested: mass density
Data returned: 872.943

----------
TEST DESCRIPTION: xn = mol fraction of the nth substance listed
ASSAY CONDITIONS: 303.15 K; 100 kPa; Liquid; Concentric cylinders viscometry; x1 = 0.1
Overview of reported viscosity across a group of molecules:
Answer format: numeric, mPa·s implied, no suffix.

CN1CCC[C@H]1c1cccnc1 [(-)-3-(N-methylpyrrolidino)pyridine] + OCCCO | 37.97
CN1CCC[C@H]1c1cccnc1 [(-)-3-(N-methylpyrrolidino)pyridine] + CCC(C)O | 2.521

Data request: Requested field: viscosity. Item: CN1CCC[C@H]1c1cccnc1 [(-)-3-(N-methylpyrrolidino)pyridine] + CC(O)CO
Data returned: 32.21

Data request: Let us now turn to CN1CCC[C@H]1c1cccnc1 [(-)-3-(N-methylpyrrolidino)pyridine] + CCCCO
Data returned: 2.374

----------
TEST DESCRIPTION: refractive index (Na D-line) (dimensionless); xn = mol fraction of the nth substance listed
ASSAY CONDITIONS: 293.15 K; 100 kPa; Liquid; Standard Abbe refractometry; x1 = 0.9
RESULT TYPE: refractive index
Enter a number only.

CN1CCC[C@H]1c1cccnc1 [(-)-3-(N-methylpyrrolidino)pyridine] + OCCCO | 1.5228
CN1CCC[C@H]1c1cccnc1 [(-)-3-(N-methylpyrrolidino)pyridine] + CC(O)CO | 1.52199
CN1CCC[C@H]1c1cccnc1 [(-)-3-(N-methylpyrrolidino)pyridine] + CCCCO | 1.51909

Data request: Param item = CN1CCC[C@H]1c1cccnc1 [(-)-3-(N-methylpyrrolidino)pyridine] + CCC(C)O ; retrieve measured refractive index.
Data returned: 1.51858

----------
TEST DESCRIPTION: xn = mol fraction of the nth substance listed
ASSAY CONDITIONS: 298.15 K; 100 kPa; Liquid; Concentric cylinders viscometry; x1 = 0.3
RESULT TYPE: viscosity (mPa·s)
The figure you give is taken to be in mPa·s; do not add the unit.

Examples with their reported viscosity follow.
CN1CCC[C@H]1c1cccnc1 [(-)-3-(N-methylpyrrolidino)pyridine] + CCC(C)O | 3.11
CN1CCC[C@H]1c1cccnc1 [(-)-3-(N-methylpyrrolidino)pyridine] + OCCCO | 42.26
CN1CCC[C@H]1c1cccnc1 [(-)-3-(N-methylpyrrolidino)pyridine] + CC(O)CO | 32.72

Lab note: next compound to report on.
Data request: Given CN1CCC[C@H]1c1cccnc1 [(-)-3-(N-methylpyrrolidino)pyridine] + CCCCO , state its recorded viscosity.
Data returned: 2.999

----------
TEST DESCRIPTION: xn = mol fraction of the nth substance listed
ASSAY CONDITIONS: 298.15 K; 100 kPa; Liquid; Vibrating tube method; x1 = 0.9
# Lookup of reported mass density keyed by entry
Could you give me the number in kg/m3? Just the number is fine.

Examples from the recorded data:
CN1CCC[C@H]1c1cccnc1 [(-)-3-(N-methylpyrrolidino)pyridine] + OCCCO | 1010.67
CN1CCC[C@H]1c1cccnc1 [(-)-3-(N-methylpyrrolidino)pyridine] + CC(O)CO | 1008.87
CN1CCC[C@H]1c1cccnc1 [(-)-3-(N-methylpyrrolidino)pyridine] + CCCCO | 995.934

Lab note: next compound to report on.
Data request: Which value of mass density has been reported for CN1CCC[C@H]1c1cccnc1 [(-)-3-(N-methylpyrrolidino)pyridine] + CCC(C)O in the records?
Data returned: 995.971

----------
TEST DESCRIPTION: xn = mol fraction of the nth substance listed
ASSAY CONDITIONS: 323.15 K; 100 kPa; Liquid; Concentric cylinders viscometry; x1 = 0.1
RESULT TYPE: viscosity (mPa·s)
Your answer should be a plain number; it is taken to be in mPa·s.

// solved cases for viscosity follow
CN1CCC[C@H]1c1cccnc1 [(-)-3-(N-methylpyrrolidino)pyridine] + CC(O)CO | 12.03
CN1CCC[C@H]1c1cccnc1 [(-)-3-(N-methylpyrrolidino)pyridine] + CCC(C)O | 1.434
CN1CCC[C@H]1c1cccnc1 [(-)-3-(N-methylpyrrolidino)pyridine] + OCCCO | 15.87

Could you now consider this next compound?
Data request: Item under review: CN1CCC[C@H]1c1cccnc1 [(-)-3-(N-methylpyrrolidino)pyridine] + CCCCO . Reported viscosity?
Data returned: 1.495
